# SETUP_CONDITIONS: calculated at brain blood flow […], free drug
MEASURE: Extraction (unbound) (%)
Please give a number only; it is taken to be in %.

Dear colleague, I am looking for the recorded Extraction (unbound) of the following compound: Nc1c(O)cccc1C(=O)O [3-hydroxy-anthranilic acid]
0.54

Reported Extraction (unbound) for CNCCC(Oc1ccc(C(F)(F)F)cc1)c1ccccc1 (stereo not drawn) : what is it?
100

Value lookup for Extraction (unbound); key = `CCCCO`
99.8

Given the compound `OC[C@@H](O)[C@@H](O)[C@H](O)[C@H](O)CO` , what is its reported Extraction (unbound)?
3.67E-04

Given the compound `OC[C@@H](O)[C@@H](O)CO` , what is its reported Extraction (unbound)?
0.15

Using the record for `OC[C@H]1O[C@H](OC[C@H]2O[C@H](O[C@]3(CO)O[C@H](CO)[C@@H](O)[C@@H]3O)[C@H](O)[C@@H](O)[C@@H]2O)[C@H](O)[C@@H](O)[C@H]1O` , report its Extraction (unbound).
3.96E-05

* * *

# SETUP_CONDITIONS: rat, in vivo, po, pH 7.4
MEASURE: Log Po

What value of measured Log Po is listed for CCCC(CCC)C(=O)O [Valproic acid] ?
−1.54

Which value of Log Po has been reported for OC[C@@H](O)[C@@H](O)CO [Erythritol] in the records?
−6.49

I have this molecule here, CCC1(c2ccccc2)C(=O)NC(=O)NC1=O [Phenobarbital] , and I need its recorded Log Po.
−3.86

What does the data say about its Log Po? Entry: O=C(O)c1cc(=O)c2ccccc2[nH]1 [Kynurenic acid]
−1.58

Which measured Log Po value corresponds to O=C1NC(=O)C(c2ccccc2)(c2ccccc2)N1 [Phenytoin] ?
−3.53

Quick one: Log Po for Nc1c(O)cccc1C(=O)O [3-hydroxy-anthranilic acid] ?
−3.05

# input molecule: CC(C(=O)O)c1ccc(-c2ccccc2)c(F)c1 (stereo not drawn) [Flurbiprofen] ; wanted: its Log Po
−0.42

Which Log Po is listed for CN(C)CCCN1c2ccccc2Sc2ccc(Cl)cc21 [Chlorpromazine] ?
−0.70

Any idea what its Log Po is? The molecule is O=C(O)c1cccnc1C(=O)O [Quinolinic acid]
−5.13

Could you tell me which Log Po is on file for Cn1nnc2c(C(N)=O)ncn2c1=O [Temozolamide] ?
−4.79

# lookup: Log Po of OC[C@H]1O[C@H](OC[C@H]2O[C@H](O[C@]3(CO)O[C@H](CO)[C@@H](O)[C@@H]3O)[C@H](O)[C@@H](O)[C@@H]2O)[C@H](O)[C@@H](O)[C@H]1O [Raffinose]
−8.02

Give its Log Po value. Item: COc1ccc2c(c1)c(CC(=O)O)c(C)n2C(=O)c1ccc(Cl)cc1 [Indomethacin]
−0.84

* * *

# SETUP_CONDITIONS: rat, in vivo, pH 7.4
// bucketize PcS: bin 0: < 0.0001 mL/s/g; bin 1: ≥ 0.0001 mL/s/g and < 0.09 mL/s/g; bin 2: ≥ 0.09 mL/s/g

Dear colleague, I would appreciate it if you could identify the bin for CCCC(C)C1(CC)C(=O)NC(=O)NC1=O (stereo not drawn) [Pentobarbital] and reply at your convenience.
bin 1

Could you tell me which band COc1ccc2c(c1)c(CC(=O)O)c(C)n2C(=O)c1ccc(Cl)cc1 [Indomethacin] belongs to?
bin 1

Into which category would you place Nc1c(O)cccc1C(=O)O [3-hydroxy-anthranilic acid] ?
bin 1

Field: class (PcS) — entry: Fc1ccc([C@@H]2CCNC[C@H]2COc2ccc3c(c2)OCO3)cc1 [Paroxetine]
bin 2

Category of OC[C@@H](O)[C@@H](O)CO [Erythritol] :
bin 0

State the band of O=C(O)c1cccnc1C(=O)O [Quinolinic acid]
bin 0

Which bin should I file Cc1c(I)c(=O)n(-c2ccccc2)n1C [Iodoantipyrine] under?
bin 2

Sort CCC1(CC)C(=O)NC(=O)NC1=O [Barbital] into one of the categories.
bin 1

* * *

Provide the recorded Po for the entries that follow.
# PROTOCOL_TEXT: In situ rat brain perfusion (brain uptake Kin, extraction E, BBB PS)
# SETUP_CONDITIONS: S assumed 100 cm^2/g
Reply with the number and its unit after it.

// query Po value for entry CO [Methanol]
278 ×10⁻⁶ cm/s

So what does the record say about Po for O=C(CO)[C@@H](O)[C@H](O)[C@H](O)CO [Fructose] ?
0.0574 ×10⁻⁶ cm/s

Need Po of Nc1ccccc1C(=O)O [Anthranilic acid] , thanks.
3600 ×10⁻⁶ cm/s

Name the reported Po value associated with the compound NC(=O)CI [Iodoacetamide]
91.7 ×10⁻⁶ cm/s

Request the reported Po associated with CNC(N)=O [Methylurea]
1.91 ×10⁻⁶ cm/s

What value of Po has been reported for the following compound? CCCCNS(=O)(=O)c1ccccc1 [N-butyl-benzene sulfonamide]
3800 ×10⁻⁶ cm/s

Which value of Po has been reported for O=C1Nc2ccc(Cl)cc2C(c2ccccc2Cl)=NC1O (stereo not drawn) [Lorazepam] in the records?
3000 ×10⁻⁶ cm/s

// query Po value for entry CC(C)NC(C)Cc1ccc(I)cc1 (stereo not drawn) [Iofetamine, isopropyl-iodoamphetamine]
94900 ×10⁻⁶ cm/s

Consider the compound CC(O)CO (stereo not drawn) [1,2-Propanediol] and give its measured Po.
21.6 ×10⁻⁶ cm/s

* * *

# PROTOCOL_TEXT: Neutral fraction at pH 7.4 calculated from pKa
# Assay type: physicochemical
# SETUP_CONDITIONS: neutral fraction at perfusion fluid pH 7.40, calculated from pKa
For each entry below, report its fn (%) value.
Reply numerically in %, unit not repeated.

Return reported fn (%); argument: `OC[C@@H](O)[C@@H](O)CO`
100

Item under review: `O=C(O)CCCc1ccc(N(CCCl)CCCl)cc1` . Reported fn (%)?
0.16

Return reported fn (%); argument: `CC(C)(C)OC(=O)CCCc1ccc(N(CCCl)CCCl)cc1`
100

# query: fn (%) of entry `O=C(O)c1cc(=O)c2ccccc2[nH]1`
4.6E−7

Would you mind telling me what fn (%) value was observed for Cn1nnc2c(C(N)=O)ncn2c1=O [Temozolamide] ?
100

Dear colleague, I am looking for the recorded fn (%) of the following molecule: `CNC(N)=O`
100

Return reported fn (%); argument: `Fc1ccc([C@@H]2CCNC[C@H]2COc2ccc3c(c2)OCO3)cc1`
0.32

Which fn (%) value belongs to NC(=O)CI [Iodoacetamide] ?
100

Name the recorded fn (%) for `O=C1NC(=O)C(c2ccccc2)(c2ccccc2)N1` .
88.4

So what does the record say about fn (%) for CN1C(=O)C(O)N=C(c2ccccc2)c2cc(Cl)ccc21 (stereo not shown) ?
100

Entry under review: `Cc1nnc2n1-c1ccc(Cl)cc1C(c1ccccc1Cl)=NC2` . Reported fn (%)?
100

Entry CCCCNC(=O)NS(=O)(=O)c1ccc(C)cc1 [Tolbutamide] has what fn (%)?
0.61

Which measured fn (%) value corresponds to `CCCC(CCC)C(=O)O` ?
0.16

* * *

# SUBJECT_OF_TEST: Lat-1 (Rattus norvegicus, UniProt Q63016)
# Sequence (Q63016 whole entry, the tested form may be a part): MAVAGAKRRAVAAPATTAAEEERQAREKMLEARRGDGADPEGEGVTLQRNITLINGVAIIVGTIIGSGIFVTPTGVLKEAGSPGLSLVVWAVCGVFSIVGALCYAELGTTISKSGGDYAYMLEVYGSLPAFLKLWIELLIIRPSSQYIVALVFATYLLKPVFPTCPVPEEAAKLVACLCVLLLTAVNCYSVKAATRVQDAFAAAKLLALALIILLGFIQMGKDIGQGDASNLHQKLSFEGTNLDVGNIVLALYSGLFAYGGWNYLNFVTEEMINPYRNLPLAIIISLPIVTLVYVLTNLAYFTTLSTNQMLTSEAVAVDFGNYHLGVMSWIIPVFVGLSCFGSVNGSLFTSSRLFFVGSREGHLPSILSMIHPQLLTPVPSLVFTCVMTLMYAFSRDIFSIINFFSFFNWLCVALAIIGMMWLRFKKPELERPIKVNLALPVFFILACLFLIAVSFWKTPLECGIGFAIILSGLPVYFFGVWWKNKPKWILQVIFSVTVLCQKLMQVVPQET
# Sequence (Q794F9 whole entry partner, the tested form may be a part): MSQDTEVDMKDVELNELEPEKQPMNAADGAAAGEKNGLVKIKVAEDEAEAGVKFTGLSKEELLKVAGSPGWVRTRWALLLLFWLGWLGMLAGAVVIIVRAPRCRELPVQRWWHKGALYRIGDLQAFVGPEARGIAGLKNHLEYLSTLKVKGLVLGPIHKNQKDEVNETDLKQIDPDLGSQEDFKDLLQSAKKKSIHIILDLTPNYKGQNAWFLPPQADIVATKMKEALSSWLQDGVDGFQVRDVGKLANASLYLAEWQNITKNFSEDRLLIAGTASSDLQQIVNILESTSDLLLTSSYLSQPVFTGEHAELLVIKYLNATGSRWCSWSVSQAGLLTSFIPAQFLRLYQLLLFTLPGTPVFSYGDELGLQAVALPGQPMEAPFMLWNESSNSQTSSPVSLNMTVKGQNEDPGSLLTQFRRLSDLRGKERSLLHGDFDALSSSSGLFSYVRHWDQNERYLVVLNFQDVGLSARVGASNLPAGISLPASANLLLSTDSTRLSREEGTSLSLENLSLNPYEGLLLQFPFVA
# SETUP_CONDITIONS: LAT1 substrates, tracer concentration, perfusion 15-30 s
MEASURE: PS (mL/s/g)
Write down the numeric answer in mL/s/g and omit the unit.

Requested read-out PS, target or system Lat-1 (Rattus norvegicus, UniProt Q63016), entry `N[C@H](C(=O)O)[C@@H]1CC(Cl)=NO1`
0.000479

Provide the documented PS with Lat-1 (Rattus norvegicus, UniProt Q63016) as the system for `N[C@@H](Cc1ccccc1)C(=O)O`
0.078

GET /values?readout=PS&system=Lat-1 (Rattus norvegicus, UniProt Q63016)&item= `N[C@@H](Cc1ccc(O)c(O)c1)C(=O)O`
0.0102

What is its PS for Lat-1 (Rattus norvegicus, UniProt Q63016)? Entry: `CNC[C@H](N)C(=O)O`
0.000542

Lookup: PS / Lat-1 (Rattus norvegicus, UniProt Q63016) / `CC(C)C[C@H](N)C(=O)O`
0.0354

* * *

# SETUP_CONDITIONS: calculated at brain blood flow […] and rat serum fu
Everything with Brain Kin lower than 0.007 mL/s/g is False; everything else, including exactly 0.007 mL/s/g, is True.

Is reported Brain Kin greater than or equal to 0.007 mL/s/g here: CN(C)CCCN1c2ccccc2Sc2ccc(Cl)cc21 [Chlorpromazine]
True

Answer whether Brain Kin of OC[C@H]1O[C@H](OC[C@H]2O[C@H](O[C@]3(CO)O[C@H](CO)[C@@H](O)[C@@H]3O)[C@H](O)[C@@H](O)[C@@H]2O)[C@H](O)[C@@H](O)[C@H]1O [Raffinose] is greater than or equal to 0.007 mL/s/g.
False

Quick check, Brain Kin >= 0.007 mL/s/g? CCCCO [Butanol]
True

Could you tell me if the measured Brain Kin of CC(C)NCC(O)COc1cccc2ccccc12 (stereo not drawn) [Propranolol] reaches 0.007 mL/s/g or more?
True

Say whether O=C1NC(=O)C(c2ccccc2)(c2ccccc2)N1 [Phenytoin] shows Brain Kin of 0.007 mL/s/g or more.
False

# bool: Brain Kin of CCCC(CCC)C(=O)O [Valproic acid] >= 0.007 mL/s/g
False

API: above_or_equal(metric=Brain Kin, cutoff=0.007 mL/s/g) for item Cc1c(I)c(=O)n(-c2ccccc2)n1C [Iodoantipyrine]
True

Record COC(=O)[C@H]1[C@H]2C[C@@H]3c4[nH]c5cc(OC)ccc5c4CCN3C[C@H]2C[C@@H](OC(=O)c2cc(OC)c(OC)c(OC)c2)[C@@H]1OC [Reserpine] ; criterion: Brain Kin no lower than 0.007 mL/s/g. Met?
True

Please tell me: is the compound Cn1c(=O)c2c(ncn2C)n(C)c1=O [Caffeine] at or over 0.007 mL/s/g in terms of Brain Kin?
True
